Test system: MS2 coat protein
Test: apparent KD of MS2 coat protein; higher = weaker reporter binding
Conditions: Eterna round: R107; input ligand: theophylline 2 mM
We begin with a simple list: items and their reported apparent KD of MS2 coat protein.
Write the number in µM without appending the unit.

Q) Entry under review: UGUAUGGACUGAAGGAGCGGGUUGAUAACAUGAGGAUCACCCAUGUAAAAGGCGAAAGCCGCCCAGGUAGGUCGCAGUCCAUACU . Reported apparent KD of MS2 coat protein?
A) 0.0131

Q) Entry under review: ACUACGAAGACGGCCGCCACUGAUAUUCGUAGAUCCAUCAAUACAUGAGGAUCACCCAUGUAUAUCAGGACCGGGUCAAGAUGGU [Tryp B Ex t6] . Reported apparent KD of MS2 coat protein?
A) 0.0282

Q) Entry under review: CCAUCUUCAUCGGCCGCCACUGAACCAAGGAGACAUGAGGAUCACCCAUGUAUGGGAAACCAUCAUAGGACCGGGAUGAAGGUGG [doubleHookLine] . Reported apparent KD of MS2 coat protein?
A) 0.0481

----------
Tested on: MS2 coat protein
Assay: apparent KD of MS2 coat protein; designed switch direction (-1 OFF switch, 1 ON switch): -1; higher = weaker reporter binding
Details: input ligand: FMN 200 uM
METRIC: apparent KD of MS2 coat protein (nM)
Write the number in nM without appending the unit.

Study these solved cases before continuing.
UUAGAUAGGUCAGGAUAUCGAUGAUUGAAUAGUAUGAUUUACAUGAGGAUCACCCAUGUUUUGUACGAGAAGGGACGUUAGAUU [JR_ExcNG2_Sub020] (Eterna round: R96, puzzle: Exclusion NG 2): 26.9
GGCAUCGGAGGAUAUACUUAUGGUGAUACCAGAAGCUUUCUACUUGAGGAUCACCCAAGUAGAAGGCCGAUGCC [jl-ex2.4.86 ViennaUCT mod] (Eterna round: R97, puzzle: Exclusion 2): 17.5
GAAAACGUAGGAUAUUAAUACUCAGACAUGAGGAUCACCCAUGUUUGGUGGGUUUAAGAAUGAGAAGGGCGAUGAA [EX5 #6] (Eterna round: R97, puzzle: Exclusion 5): 49
CUCGUGCAGCAAAGCUGUACGAGUACAUGAGGAUCACCCAUGUAGGAUAUGGUACGCAAAGCGUGCCAGAAGGACGUGCGUUAG [Mat - Exclusion NG 3 - Mod of JL - D94] (Eterna round: R96, puzzle: Exclusion NG 3): 92.5

Alright, here's another sequence for you.
Q) Entry under review: UUCUUUAUACGAGGAUAUCAUACAUGAGGAUCACCCAUGUGGCUGGGUCUGUUUUUAUAUAUUAUUGAGAAGGCGUUUUUCUUU [JR_ExcNG2_Sub074] (Eterna round: R96, puzzle: Exclusion NG 2) . Reported apparent KD of MS2 coat protein?
A) 197

----------
System: K4 kissing-loop RNA reporter;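 also: bound reporter read as fluorescence of individual clusters on recovered sequencing chips by microscopy, with normalized cluster intensities fitted with a binding model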
Assay: apparent KD of K4 kissing-loop reporter; higher = weaker reporter binding
Details: Eterna round: R107; input ligand: none
METRIC: apparent KD of K4 kissing-loop reporter (nM)
Write the number in nM without appending the unit.

Study these solved cases before continuing.
GGAUCCACCAGUGAUGUUGGAGAAAACUCCAAGGAUAUGACGAAAGUCAGAAGGUGGUAGACUGGUCAAAGUCCGGUCGGAUCCA [FmnA10 U66]: 338
UGAUAGGACAGAAGGAGCGGUAGUGAUGUUACCAAAAGGGUAAGGUGUCAAAAGACACCCUGCCAGGUAGGUCGCUGUCCUAUCU: 99.1
UUAAGGGUCCGAGGAUAUCUCCCAGUGAUGUUGGGCGAUACGGCCCUUAAGACUAAUGGUUGAAGGAGAGAAGGCGGCUCCCGAU [Edmaisle]: 128
ACAGUACCGGGAAGGAGCGUGAAUGAGAAUGGAUAUAGUGAUGUUAUGUAUACGAACGAAUCGCAGGUAGGUCGCCCGGAUCCCU [SSArgB.aD]: 650

Q) Entry under review: UGAUACCAGACUGAUACCAGCCACAGAGUCAAAGACUCUGAAAGGGAAACCAGUGAUGUUGGCCCUUGGCAGCAGUCUGGUAUCU [TheoBX 23 #SwitchBubble #StaticStem] . Reported apparent KD of K4 kissing-loop reporter?
A) 493

----------
Test system: MS2 coat protein
Experiment: apparent KD of MS2 coat protein, switch OFF state (with FMN for OFF switches, without FMN for ON switches); designed switch direction (-1 OFF switch, 1 ON switch): 1; higher = weaker reporter binding
Details: FMN input: 0 or 200 uM; Eterna round: R93 (includes R88 designs)
# apparent KD of MS2 coat protein >= 0.08 µM gives Criterion met, anything below gives Criterion not met

Example results:
AUAAAACAUGAGGAUCACCCAUGUAAAAAAGCAUGAGGAUAUAUAAAAAGAAAAAGAAGAAUAGAAGGCAUAGUAA [JR_SS001_Sub1222]: Criterion not met
CAGAGACAUGAGGAUCACCCAUGUAGGAUUAUGGGAGGAUAUACAAAGACGAGAGUCAGAGUAGAAGGCCUAGGAC [salish99-ss1-144]: Criterion not met
AUAAAAUAAAUUGAGGAUAUCUAUAAUAAAACAUGAGGAUCACCCAUGUUUAAACAAAGAUCAUGGGAGAAGGCAGAAAAUAAAU [SS2 M 37]: Criterion not met
AAAAAACAUGAGGAUCACCCAUGUAGAAACAUGGGAGGAUAUACAAAGACGAAAGUCAAAGUAGAAGGCCUAAAGA [Mat - Same State 1 - Mod - D162]: Criterion met

Q) API: above_or_equal(metric=apparent KD of MS2 coat protein, cutoff=0.08 µM) for item AAAAAAAAAACUCAGGAUAUAGAUUGUAGAACAUGAGGAUCACCCAUGUAGUGAAAGAAGAGAGACUAGAAGGGAGUAAAAAAAAA [Same State 2 #3]
A) Criterion not met

Q) API: above_or_equal(metric=apparent KD of MS2 coat protein, cutoff=0.08 µM) for item AGAAAACAUGAGGAUCACCCAUGUGACAAUAUGGGAGGAUAUACGAAGACGAAAGUCGAAGUAGAAGGCCUAAAGA [Garnet 50]
A) Criterion not met

Q) API: above_or_equal(metric=apparent KD of MS2 coat protein, cutoff=0.08 µM) for item UCCUUACAUGAGGAUCACCCAUGUCGCAGGAAUCAAGGAUAUGGGACCGCAAGACGGAAACCAGAAGGUGAAAUAU [Gedizala]
A) Criterion met

Q) API: above_or_equal(metric=apparent KD of MS2 coat protein, cutoff=0.08 µM) for item AAAUAACAUGAGGAUCACCCAUGUUGCAACGGUACAGGAUAUGUGGGUGAAAAUAGCAUGACAGAAGGGUAGUGUA [SameState1 Malc#30]
A) Criterion met

Q) API: above_or_equal(metric=apparent KD of MS2 coat protein, cutoff=0.08 µM) for item AAAGAAGAAAGACAGGAUAUGGAUGGGUAAACAUGAGGAUCACCCAUGUAUAAGAAAGAAAGAAACCAGAAGGGUCAAAAGAAAA [Darius III]
A) Criterion met

Q) API: above_or_equal(metric=apparent KD of MS2 coat protein, cutoff=0.08 µM) for item GAAGACAUAGUUCAGGAUAUGGGAAUAGUCACAUGAGGAUCACCCAUGUGCAUUUAUAUGCGCGCUCAGAAGGGAGGUAGAUAUA [SameState2 Malc#19]
A) Criterion not met

Q) API: above_or_equal(metric=apparent KD of MS2 coat protein, cutoff=0.08 µM) for item GUGAAGGAGAGAGAGGAUAUCCAAAGGAAAACAUGAGGAUCACCCAUGUAGAAGGUAGGAAAUUGGGAGAAGGCUCAAGAGAGAG [salish99-ss2-114]
A) Criterion not met

Q) API: above_or_equal(metric=apparent KD of MS2 coat protein, cutoff=0.08 µM) for item AACAAUCUAUCUGAGGAUAUGUGUCGAAAGACAUGAGGAUCACCCAUGUGAAAACAUGGGAAAACACAGAAGGCAGAUAGAUUGA [SS2: 1152]
A) Criterion not met

Q) API: above_or_equal(metric=apparent KD of MS2 coat protein, cutoff=0.08 µM) for item AAGAAACAUGAGGAUCACCCAUGUAAUAAUAUGGGAGGAUAUACAAGGACGUAAGUCAAGGUAGAAGGCCUAAGAA [Mat - Same State 1 - Meechl mod - D141]
A) Criterion met

Q) API: above_or_equal(metric=apparent KD of MS2 coat protein, cutoff=0.08 µM) for item CAGGGACAUGAGGAUCACCCAUGUGGGAUUAUGGGAGGAUAUACAAAGACGAGAGUCAGAGUAGAAGGCCUAGGAC [salish99-ss1-128]
A) Criterion met

Q) API: above_or_equal(metric=apparent KD of MS2 coat protein, cutoff=0.08 µM) for item AAAAAACAAAGAGAGGAUAUCCUGAAAAAAACAUGAGGAUCACCCAUGUAAAGAAAUUUAAAAUGGGAGAAGGCUCUUUGAAAAA [Same State 2.6c ( Helter Skelter 1)]
A) Criterion not met

Q) API: above_or_equal(metric=apparent KD of MS2 coat protein, cutoff=0.08 µM) for item GAGAGACAUGAGGAUCACCCAUGUAGGAUUAUGGGAGGAUAUACAAAGACGAGAGUCAGAGUAGAAGGCCUAGGAC [salish99-ss1-140]
A) Criterion not met

Q) API: above_or_equal(metric=apparent KD of MS2 coat protein, cutoff=0.08 µM) for item ACCCGAAAGACGUAGGAUAUGUGGUCACCGACAUGAGGAUCACCCAUGUAUGCGGGAGAAUGGGUGCAGAAGGACGCUGUUCGGU [Antilera]
A) Criterion met

Q) API: above_or_equal(metric=apparent KD of MS2 coat protein, cutoff=0.08 µM) for item AAAAAAAAAGUCGAGGAUAUCCACAUGGCGACAUGAGGAUCACCCAUGUGAAGAAAAGCACAUGAGGAGAAGGCGACAAAAAAAA [Same State 2.7a (Tightrope mod)]
A) Criterion met

Q) API: above_or_equal(metric=apparent KD of MS2 coat protein, cutoff=0.08 µM) for item AAAAAACAUGAGGAUCACCCAUGUAGAAACAUGGGAGGAUAUACGAAGACGAAAGUCAAAGUAGAAGGCCUAAGAG [Garnet 89]
A) Criterion met

Q) API: above_or_equal(metric=apparent KD of MS2 coat protein, cutoff=0.08 µM) for item AUAUGAGCUAUGGAGGAUAUCCAUAACAAGACAUGAGGAUCACCCAUGUAAUCAAAACAAUAAUGGGAGAAGGCCAUAGCUCAAU [SS 2 M47]
A) Criterion not met

Q) API: above_or_equal(metric=apparent KD of MS2 coat protein, cutoff=0.08 µM) for item AAAAAACAUGAGGAUCACCCAUGUGCAAAAUUCGCAGGAUAUUCUUUUUUUAAAUGGGAGGGAGAAGGGUGUAAAA [Nob's Hobby 20 - Jieux - Same State 1]
A) Criterion not met

Q) API: above_or_equal(metric=apparent KD of MS2 coat protein, cutoff=0.08 µM) for item AAAUAACAUGAGGAUCACCCAUGUGGGCUUAAGCAAGGAUAUGGGCACUCAAAAGUAGCGCCAGAAGGUGCAGUCG [Anrabitien]
A) Criterion met

Q) API: above_or_equal(metric=apparent KD of MS2 coat protein, cutoff=0.08 µM) for item AACAAACAUGAGGAUCACCCAUGUCAAACAAACCAAGGAUAUGGGAAGCGAGACUCGCUACCAGAAGGUGGAAAUU [Edtigebe]
A) Criterion met
